Each item that follows carries a reported ED50.
# Test system: tryptamine-induced bilateral tonic seizures
# procedure_text: combined test in rats: tryptamine (TRY)-induced bilateral tonic seizures
# Format: in vivo, adult male Wistar rats
# stated_conditions: sc, 1.5 h; s.c.; rat; tryptamine 40 mg/kg i.v. at 90 minutes; dose protecting 50% of animals; read-out: ED0 (TRY)-rat
measured_endpoint: ED50 (mg/kg)

compound: Cc1ccc(C(=O)CC2CCN(CCn3c(=O)[nH]c4ccccc43)CC2)cc1
measured_endpoint: ED50
readout_unit: mg/kg
meas_value: 2.5
//
compound: CC(CCn1c(=O)[nH]c2ccccc21)N1CCC(CC(=O)c2ccc(F)cc2)CC1 (stereo not shown) [H, H, H, [drawing 21], CO, 4-FC6 H4, base]
measured_endpoint: ED50
readout_unit: mg/kg
meas_value: 5
//
compound: O=C(CC1CCN(CCn2c(=O)[nH]c3ccccc32)CC1)c1ccccc1
measured_endpoint: ED50
readout_unit: mg/kg
meas_value: 2.5
//
compound: O=C(CC1CCN(CCn2c(=O)[nH]c3ccc(Cl)cc32)CC1)c1ccc(F)cc1
measured_endpoint: ED50
readout_unit: mg/kg
meas_value: 1.25
//
compound: O=C(CC1CCN(CCn2c(=O)[nH]c3ccccc32)CC1)c1ccc(Cl)cc1
measured_endpoint: ED50
readout_unit: mg/kg
meas_value: 2.5
//
compound: CC(=O)n1c(=O)n(CCN2CCC(CC(=O)c3ccc(F)cc3)CC2)c2ccccc21
measured_endpoint: ED50
readout_unit: mg/kg
meas_value: 1.25
//
compound: Cn1c(=O)n(CCN2CCC(CC(=O)c3ccc(F)cc3)CC2)c2ccccc21
measured_endpoint: ED50
readout_unit: mg/kg
meas_value: 0.63
//
compound: O=C(CC1CCN(CCCn2c(=O)[nH]c3ccccc32)CC1)c1ccc(F)cc1
measured_endpoint: ED50
readout_unit: mg/kg
meas_value: 1.25
//
compound: Cc1ccc2c(c1)[nH]c(=O)n2CCN1CCC(CC(=O)c2ccc(F)cc2)CC1
measured_endpoint: ED50
readout_unit: mg/kg
meas_value: 0.63
//
compound: O=C(CC1CCN(CCn2c(=O)[nH]c3cc(Cl)ccc32)CC1)c1ccc(F)cc1
measured_endpoint: ED50
readout_unit: mg/kg
meas_value: 5
//
compound: O=C(CC1CCN(CCn2c(=O)[nH]c3cc(F)ccc32)CC1)c1ccc(F)cc1
measured_endpoint: ED50
readout_unit: mg/kg
meas_value: 0.63
//
compound: O=C(CC1CCN(CCn2c(=O)[nH]c3ccccc32)CC1)c1ccc(F)cc1
measured_endpoint: ED50
readout_unit: mg/kg
meas_value: 0.31
//
compound: Cn1c(=O)n(CCCN2CCC(CC(=O)c3ccc(F)cc3)CC2)c2ccccc21
measured_endpoint: ED50
readout_unit: mg/kg
meas_value: 1.25
